Collected microsomal CLint values appear next to each entry.
Assay Overview: in vitro
Condition Label: human, liver microsomes
Measured Attribute: microsomal CLint

Fc1ccc(F)c(O[C@@H](c2ccccc2)[C@H]2CCNC2)c1Cl; 113 µL/min/mg
Clc1cccc(O[C@@H](c2ccccc2)[C@H]2CCNC2)c1Cl; < 5 µL/min/mg
Fc1ccc(O[C@@H](c2ccccc2)[C@H]2CCNC2)c(Cl)c1; < 5 µL/min/mg
CCN(CC)C(=O)C1(c2ccccc2)CC1CN (centres undefined); < 5 µL/min/mg

---

Assay Overview: Oral bioavailability in rat at 10 mg/kg
Format: ADME, organism-based
Condition Label: in vivo
Measured Attribute: bioavailability (%)

Clc1ccc(Cl)c(O[C@H](c2ccccc2)[C@@H]2CCNC2)c1Cl; 6
